tested on: A549; assay: Cytotoxicity against human A549 cells; type: functional, cell-based
Calls of active or inactive are those of the source. No cut-off for these calls is given here.
MEASURED_ATTRIBUTE: Activity

>>> reading("C=C1CC[C@H](OC(C)=O)[C@@]2(C)[C@H]1[C@@H](OC(C)=O)[C@@]13O[C@](O)(C[C@H]2OC(C)=O)C(=C)C[C@@H]1OC(=O)[C@@H]3C")
"inactive"
>>> reading("C=C1CC[C@H](OC(C)=O)[C@]2(C)[C@@H](OC(C)=O)C[C@@H](OC(C)=O)/C(C)=C\\[C@@H]3OC(=O)[C@H](C)[C@]3(O)[C@@H](OC(C)=O)[C@@H]12")
"inactive"
>>> reading("C=C1[C@H]2C[C@@H](OC(C)=O)[C@@]3(C)[C@@H](OC(C)=O)CC[C@]4(CO4)[C@@H]3[C@@H](OC(C)=O)[C@]3(O2)[C@@H](C)C(=O)O[C@H]3[C@H]1Cl")
"inactive"
